Listed here: items and their measured ADCC EC50, NUGC4-CLDN18.2 cells, PBMC.
system: human Claudin 18.2 (CLDN18.2) (human, UniProt P56856-2 1-261)
test: cell-based or functional assay
property.measured: ADCC EC50, NUGC4-CLDN18.2 cells, PBMC (nM)

• 364D1A7-VL-S32V (antibody, human IgG1, kappa, V domains shown, chimeric human IgG1, PTM site removed; also called 364D1A7-VL-32V) VH: DVQLVESGGGLVQPGGSRKLSCAASGFTFSSFGMHWVRQAPEKGLEWVAYISSGSGSIYYADTVKGRFTLSRDNPKNTLFLQMTSLRSEDTAIYYCATSYYYGNALEYWGQGTSVTVSS VL: DVVLTQSPSSLTVTEGEKVSMSCKSSQSLFNVGNQKNYLTWYQQKPGQTPTLLIYWASTRKSGVPDRFTGSGSGTDFTLTINTVQAEDLAVYYCQNVYSYPLTFGAGTKLDLKR = 6.36
• 357B8F8-VH-S61I-VL-S32I (antibody, human IgG1, kappa, V domains shown) VH: QVQLKESGPGLVAPSQSLSITCTVSGFSLTSYGVHWVRQPPGKGLEWLGVIWPGGNTNYNIALMSRLSISKDNSKSQVFLKMNSLQTDDTAMYYCARDRRLAMDYWGQGTSVTVSS VL: DIVMTQSPSSLTVTAGEKVTMTCKSSQSLLNIGNQKNYLTWYQQKPGQPPKLLIYWASTRESGVPDRFTGSGSGTDFTLTISILQAEDLAVYYCQNDYSYPFTFGSGTKLEIKR = 4.87
• 413H9F8-VL-S32V (antibody, human IgG1, kappa, V domains shown, chimeric human IgG1, PTM site removed; also called 413H9F8-VL-32V; 413H9F8-VL-532V) VH: DVQLVESGGGSVQPGGSRRLSCAASGFTFSSFGMHWVRQAPEKGLEWVAYISSGSSPIYYVDKLKGRFTVSRDNPKNTLFLQMTSLRSEDTAMYYCARAGYAVRNALDYWGQGTSITVSS VL: DIVMTQSPSSLSVSVGEKVTLSCKSSQSLLNVGNQKNYLAWYQQKTGQPPKLLIYGASTRESGVPDRFIGSGSGTDFTLTISSVQAEDLAVYFCQNDLFYPLTFGAGTKLELKR = 7.69
